assay_details: protein stability index of a GFP-peptide fusion (yeast GPS) (PSI 1-4); higher = more stable; sorted into four equal gates, so the index is relative within each strain
measurement_parameters: doa10∆
Hi, to clarify the labels: T covers protein stability index from 3 upward, F covers anything below 3.

Past entries and their recorded results:
Input: Has FEAQIDSVEFIFQAKRN [RPN10] a recorded protein stability index greater than or equal to 3?
Output: F

Input: Determine whether measured protein stability index meets or exceeds 3 for ADVFTDDDLFETLVLSY [YCG1]
Output: F

Input: Decide: is the reported value of protein stability index for TVASSKVGYTLPSHIIS [RPL4A] equal to or greater than 3?
Output: T

More entries:
Input: Would you say AYHQKYVDEQSKNELKK [RPS16A] shows protein stability index at minimum 3?
Output: F

Input: Exam item: decide whether the reported protein stability index for DEDKFKKLKPIVAKYDP [PRP28] is at least 3.
Output: F

Input: Given IEEQGWGGFPLDISVFL [TAF14] , state whether its protein stability index is at least 3.
Output: T

Input: Record GAIILTKMDGHARGGGA [SRP54] ; criterion: protein stability index no lower than 3. Met?
Output: F

Input: Is the recorded value of protein stability index equal to or greater than 3 for this sequence? TEKNREIYKQLNDRQEE [YIL149C/MLP2]
Output: T

Input: Evaluate LQQICRVRNKDIRKFLD [RPL9A] : protein stability index at minimum 3?
Output: F

Input: Would you say QTARKSTGGKAPRKQLA [HHT1] shows protein stability index at minimum 3?
Output: T

Input: Determine whether measured protein stability index meets or exceeds 3 for NGDLTVSLCAKNMGLVP [SSN2]
Output: F

Input: Identify whether the reported protein stability index of the following sequence is 3 or greater: IPLDNYDDFIYLSDLKQ [PCI8]
Output: F

---

assay_details: protein stability index of a GFP-peptide fusion (yeast GPS) (PSI 1-4); higher = more stable; sorted into four equal gates, so the index is relative within each strain
measurement_parameters: pdr5∆
property_measured: protein stability index

Worked examples, 8 sequences total:
protein stability index for LSAEYLVILKPDLNIDR [SIN4] is 3.1

Per the record, LNKEKLGPLFKKIVDDT [IRR1] has protein stability index of 3.12

The recorded protein stability index for entry AVYGPRSIRGSFTSQGT [MTR3] equals 3.2

Value of protein stability index reported for the sequence FPKTTVAALRFTAGARA [RPL18A] is 1.47

protein stability index reported for this sequence TKKKRKPTEVNDSENNS [ITC1] : 3.21

Per the record, TVVGNASFGKNLQIRQL [DSN1] has protein stability index of 2.7

Summary for this sequence, SNDSQSHFDYNTLEFII [YCG1] : protein stability index is 2.78

Item: AITISNSIDINYKGLPK [SMC1] | protein stability index: 2.83

Next:
# protein stability index of KKIGCYMFANLEFSIYH [CSN12] = 1.95

Data point: SNGIFYGPSFTKRESLN [SIR2] ; protein stability index = 2.83

The value of protein stability index measured for the sequence ESPLSVAIQQGDIKPEF [YML103C/NUP188] turned out to be 1.44

protein stability index recorded for this sequence, VEILFEAGASAELDDCR [RPO21] , is 3.44

Reported protein stability index ( LKKIRAHRGIRHFWGLR [RPS18A] ) = 2.74

Field protein stability index (entry MPGSQINSPMPQQAQMQ [SNF2] ) reads 2.87
